- Tested on: 379773-124-R-J2-PDC complex spheroids, viability % test/control
- experimentalDetails: Anticancer human tumor 379773-124-R-J2-PDC patient-derived endometrial carcinoma cell line growth inhibition [CLK]
- experimentalContext: second compound 10 µM; first compound 0.0949 µM; active compounds read low
The threshold is 10%. Values of viability, T/C beneath it are tagged Met; values meeting or exceeding it are tagged Not met.

compound	labelClass
NC(=O)C(=Cn1cnc(-c2cc(C(F)(F)F)cc(C(F)(F)F)c2)n1)c1cncnc1 + CN1CCN(c2cc(C(=O)Nc3cc4cc(-c5cnn(C)c5)ccc4cn3)ccn2)CC1	Met
NC(=O)C(=Cn1cnc(-c2cc(C(F)(F)F)cc(C(F)(F)F)c2)n1)c1cncnc1 + CNC(=O)c1ccc(Nc2nc(OC3CCCC3)c3c(-c4ccc5nc(C)oc5c4)c[nH]c3n2)c(OC)c1	Not met
CC(C)CC(NC(=O)C(Cc1ccccc1)NC(=O)c1cnccn1)B(O)O (stereo unspecified) + CN1CCN(c2cc(C(=O)Nc3cc4cc(-c5cnn(C)c5)ccc4cn3)ccn2)CC1	Met
C=CC(=O)Nc1cc(Nc2nccc(-c3cn(C)c4ccccc34)n2)c(OC)cc1N(C)CCN(C)C + CN1CCN(c2cc(C(=O)Nc3cc4cc(-c5cnn(C)c5)ccc4cn3)ccn2)CC1	Met
C=CC(=O)Nc1cc(Nc2nccc(-c3cn(C)c4ccccc34)n2)c(OC)cc1N(C)CCN(C)C + CNC(=O)c1ccc(Nc2nc(OC3CCCC3)c3c(-c4ccc5nc(C)oc5c4)c[nH]c3n2)c(OC)c1	Not met
CC(C)CC(NC(=O)C(Cc1ccccc1)NC(=O)c1cnccn1)B(O)O (stereo unspecified) + CNC(=O)c1ccc(Nc2nc(OC3CCCC3)c3c(-c4ccc5nc(C)oc5c4)c[nH]c3n2)c(OC)c1	Met

* * *

- Test system: 379773-124-R-J2-PDC complex spheroids, viability % test/control
- experimentalDetails: Anticancer human tumor 379773-124-R-J2-PDC cell line growth inhibition [CLK];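 note: compound exposure lasted seven days before the viability readout; 100% = DMSO vehicle control wells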
- experimentalContext: second compound 0.1 µM; first compound 0.01 µM; active compounds read low

compound	viability, T/C (%)
COc1c(OCCCN2CCOCC2)ccc2c3n(c(=NC(=O)c4cnc(N)nc4)nc12)CCN3 + CN1CCN(c2cc(C(=O)Nc3cc4cc(-c5cnn(C)c5)ccc4cn3)ccn2)CC1	74.7
Cn1ncnc1[C@H]1c2n[nH]c(=O)c3cc(F)cc(c23)N[C@@H]1c1ccc(F)cc1 + CNC(=O)c1ccc(Nc2nc(OC3CCCC3)c3c(-c4ccc5nc(C)oc5c4)c[nH]c3n2)c(OC)c1	26.9
CCN1CCN(Cc2ccc(Nc3ncc(F)c(-c4cc(F)c5nc(C)n(C(C)C)c5c4)n3)nc2)CC1 + CNC(=O)c1ccc(Nc2nc(OC3CCCC3)c3c(-c4ccc5nc(C)oc5c4)c[nH]c3n2)c(OC)c1	48.7
CCN1CCN(Cc2ccc(Nc3ncc(F)c(-c4cc(F)c5nc(C)n(C(C)C)c5c4)n3)nc2)CC1 + CN1CCN(c2cc(C(=O)Nc3cc4cc(-c5cnn(C)c5)ccc4cn3)ccn2)CC1	76.5
CCc1c2c(nc3ccc(O)cc13)-c1cc3c(c(=O)n1C2)COC(=O)[C@]3(O)CC + CN1CCN(c2cc(C(=O)Nc3cc4cc(-c5cnn(C)c5)ccc4cn3)ccn2)CC1	7.87
CCc1c2c(nc3ccc(O)cc13)-c1cc3c(c(=O)n1C2)COC(=O)[C@]3(O)CC + CNC(=O)c1ccc(Nc2nc(OC3CCCC3)c3c(-c4ccc5nc(C)oc5c4)c[nH]c3n2)c(OC)c1	4.87
COc1c(OCCCN2CCOCC2)ccc2c3n(c(=NC(=O)c4cnc(N)nc4)nc12)CCN3 + CNC(=O)c1ccc(Nc2nc(OC3CCCC3)c3c(-c4ccc5nc(C)oc5c4)c[nH]c3n2)c(OC)c1	29
Cn1ncnc1[C@H]1c2n[nH]c(=O)c3cc(F)cc(c23)N[C@@H]1c1ccc(F)cc1 + CN1CCN(c2cc(C(=O)Nc3cc4cc(-c5cnn(C)c5)ccc4cn3)ccn2)CC1	64.1
